# ASSAY TARGET: HIF-2α HIS TAG-PASB Domain (Homo sapiens)
# Construct: 100 nM HIF-2α HIS TAG-PASB Domain
# Sequence (Q99814 240-350 limits assumed): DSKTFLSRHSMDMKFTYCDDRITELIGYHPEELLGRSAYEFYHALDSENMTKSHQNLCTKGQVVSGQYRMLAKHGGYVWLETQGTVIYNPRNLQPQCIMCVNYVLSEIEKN
# EXPERIMENTAL PROTOCOL: HIF-2α Scintillation Proximity Assay (SPA)
# Type: binding
# CONDITIONS: 150 nM Compound 211 probe, 100 nM HIF-2α HIS TAG-PASB Domain; read-out: SPA IC50
Consider the cut-off 10 µM. If the recorded IC50 is strictly smaller, the label is true (1); if not, the label is false (0).

{"columns": ["COMPOUND", "ASSAY TARGET", "LABEL CLASS"],
 "data": [
  ["COc1cncc(Oc2ccc3c(c2Br)[C@@H](O)C(F)(F)S3(=O)=O)c1", "HIF-2α HIS TAG-PASB Domain (Homo sapiens)", "false (0)"],
  ["N#Cc1cncc(Oc2ccc(S(=O)(=O)CF)c3c2[C@@H](F)C(F)(F)[C@H]3O)c1", "HIF-2α HIS TAG-PASB Domain (Homo sapiens)", "true (1)"],
  ["O=S1(=O)CC(O)c2c1ccc(Oc1cc(F)cc(F)c1)c2Br (stereo not shown)", "HIF-2α HIS TAG-PASB Domain (Homo sapiens)", "false (0)"],
  ["N#CN=S(=O)(c1ccc(Oc2cc(F)cc(C#N)c2)c2c1[C@H](O)[C@H](F)C2)C(F)F (single isomer, unassigned) [Compound 63]", "HIF-2α HIS TAG-PASB Domain (Homo sapiens)", "false (0)"],
  ["N#Cc1c(Oc2cc(F)cc(Cl)c2)ccc2c1[C@H](O)CS2(=O)=O", "HIF-2α HIS TAG-PASB Domain (Homo sapiens)", "false (0)"],
  ["N#Cc1cc(F)cc(Oc2ccc(S(=O)(=O)C(F)(F)F)c3c2[C@@H](N)C[C@H]3O)c1 (relative stereo)", "HIF-2α HIS TAG-PASB Domain (Homo sapiens)", "true (1)"],
  ["N#Cc1c(Oc2cc(F)cc(F)c2)ccc2c1[C@@H](O)CS2(=O)=O", "HIF-2α HIS TAG-PASB Domain (Homo sapiens)", "true (1)"],
  ["C[C@]1(F)Cc2c(Oc3cc(F)cc(C#N)c3)ccc(S(C)(=O)=O)c2[C@@H]1O", "HIF-2α HIS TAG-PASB Domain (Homo sapiens)", "false (0)"],
  ["N#Cc1cc(F)cc(Oc2ccc3c(c2Br)C(=O)C(F)(F)S3(=O)=O)c1", "HIF-2α HIS TAG-PASB Domain (Homo sapiens)", "true (1)"],
  ["N=S1(=O)CC(O)c2c1ccc(Oc1cc(F)cc(F)c1)c2C(F)F (stereo not shown)", "HIF-2α HIS TAG-PASB Domain (Homo sapiens)", "false (0)"],
  ["N#Cc1c(Oc2cc(F)cc(Cl)c2)ccc2c1C(O)CS2(=O)=O (stereo not shown)", "HIF-2α HIS TAG-PASB Domain (Homo sapiens)", "true (1)"],
  ["O=S(=O)(c1ccc(Oc2cncc(F)c2)c2c1[C@H](O)C(F)(F)C2)C(F)(F)F", "HIF-2α HIS TAG-PASB Domain (Homo sapiens)", "true (1)"],
  ["N#Cc1cc(Oc2ccc3c(c2C(F)F)[C@@H](O)C(F)(F)S3(=O)=O)ccc1F", "HIF-2α HIS TAG-PASB Domain (Homo sapiens)", "true (1)"],
  ["N#Cc1cc(F)cc(Oc2ccc3c(c2Cl)[C@@H](O)C(F)(F)S3(=O)=O)c1", "HIF-2α HIS TAG-PASB Domain (Homo sapiens)", "true (1)"],
  ["N#CN=S1(=O)CC(O)c2c1ccc(Oc1cc(F)cc(F)c1)c2C(F)F (stereo not shown) [Compound 159]", "HIF-2α HIS TAG-PASB Domain (Homo sapiens)", "false (0)"]
]}
